Test system: biotinyl-Ile-oxazolone
measurement-description: self-aminoacylation, catalytic enhancement (BIO) (fold over background); higher = more active; k-Seq, kA / k0A0; sequences stand for … in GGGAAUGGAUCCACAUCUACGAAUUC…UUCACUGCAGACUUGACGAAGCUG
Fewer inactive variants are shown than the library holds.
Decision: self-aminoacylation >= 2 yields rule met, all other cases yield rule not met.

Decide: self-aminoacylation of AAGUUUGAUGAUAGUCGCAAG [Fam3.1 aminoacylation ribozyme variant] >= 2? rule not met

Decide: self-aminoacylation of CUUACCCUGGUCAUGGAGUGA [Fam2.1 aminoacylation ribozyme variant] >= 2? rule met

Decide: self-aminoacylation of AUACUUCAAACAAUCGUUCUG [Fam1A.1 aminoacylation ribozyme variant] >= 2? rule not met

Decide: self-aminoacylation of AUUCACCUAAGUCAACGGGUG [Fam2.2 aminoacylation ribozyme variant] >= 2? rule met

Decide: self-aminoacylation of CCACACAUCAAGCAAUCGAUC [Fam1B.1 aminoacylation ribozyme variant] >= 2? rule not met

Decide: self-aminoacylation of CCACACUUCAAGCAAUCCAUC [Fam1B.1 aminoacylation ribozyme variant] >= 2? rule not met

Decide: self-aminoacylation of AUACUUCAAACAAUCGAUCUG [Fam1A.1 aminoacylation ribozyme variant] >= 2? rule not met

###

Would you kindly list self-aminoacylation for each of these sequences?
Tested on: biotinyl-Leu-oxazolone
measurement-description: self-aminoacylation, catalytic enhancement (BLO) (fold over background); higher = more active; k-Seq, kA / k0A0; sequences stand for … in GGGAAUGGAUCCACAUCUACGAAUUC…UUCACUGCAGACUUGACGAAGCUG
This sample holds only a part of the variants without activity.
One number for each entry.

Example cases with answers are listed next.
INSERT INTO measurements (sequence_entry, system_under_test, experimental_readout, obs_value) VALUES
  ('CCACACUUAAAGGAAUCGGUC [Fam1B.1 aminoacylation ribozyme variant]', 'biotinyl-Leu-oxazolone', 'self-aminoacylation', 0.906),
  ('CAACACUUCAAGCAAUCCGUC [Fam1B.1 aminoacylation ribozyme variant]', 'biotinyl-Leu-oxazolone', 'self-aminoacylation', 1.02),
  ('CCACACUUCCAGCAAUCGCUC [Fam1B.1 aminoacylation ribozyme variant]', 'biotinyl-Leu-oxazolone', 'self-aminoacylation', 1.35),
  ('ACUCACCUAGGACAUCGGGUG [Fam2.2 aminoacylation ribozyme variant]', 'biotinyl-Leu-oxazolone', 'self-aminoacylation', 4.64),
  ('CUACACUUCAAGCAAUCGGUG [Fam1B.1 aminoacylation ribozyme variant]', 'biotinyl-Leu-oxazolone', 'self-aminoacylation', 4.94),
  ('ACUACCCUGGUCAUCGAGUGU [Fam2.1 aminoacylation ribozyme variant]', 'biotinyl-Leu-oxazolone', 'self-aminoacylation', 59.7),
  ('AUUCACCUAGGUAAACGGGUG [Fam2.2 aminoacylation ribozyme variant]', 'biotinyl-Leu-oxazolone', 'self-aminoacylation', 4.47);

Proceed to the following item.
Value lookup for self-aminoacylation; key = AUUAGCCUGAUCAUCGAGUGA [Fam2.1 aminoacylation ribozyme variant] 10.6

###

Would you kindly list self-aminoacylation for each of these sequences?
System: biotinyl-Phe-oxazolone
measurement-description: self-aminoacylation, catalytic enhancement (BFO) (fold over background); higher = more active; k-Seq, kA / k0A0; sequences stand for … in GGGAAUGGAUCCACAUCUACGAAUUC…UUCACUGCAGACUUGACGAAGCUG
Fewer inactive variants are shown than the library holds.

INSERT INTO measurements (sequence_entry, system_under_test, obs_value) VALUES
  ('AUUCACCUAGGUGAUCGGGGG [Fam2.2 aminoacylation ribozyme variant]', 'biotinyl-Phe-oxazolone', 21.6),
  ('CAACUUCAAACAAUAGGUCUG [Fam1A.1 aminoacylation ribozyme variant]', 'biotinyl-Phe-oxazolone', 1.41);

Please give self-aminoacylation, item by item, for the list that follows.
1. AUGACCCCGGUCAUCGAGUGA [Fam2.1 aminoacylation ribozyme variant]
2. UUUACCCUGGUCAUCGAGCGA [Fam2.1 aminoacylation ribozyme variant]
3. AUUACCCUCGUCAGCGAGUGA [Fam2.1 aminoacylation ribozyme variant]
4. AUUACCCAGCUCAUCGAGUGA [Fam2.1 aminoacylation ribozyme variant]
5. CCAUACUUCAAUCAAUCGGUC [Fam1B.1 aminoacylation ribozyme variant]
6. AUUUACCUAGGUCAUCCGGUG [Fam2.2 aminoacylation ribozyme variant]
7. UUACUUCAGACAAUCGGUCUG [Fam1A.1 aminoacylation ribozyme variant]

39.9
2.17
9.66
1.01
31.2
41.8
1.73
